B1: HDV Ribozyme (parent)
chain: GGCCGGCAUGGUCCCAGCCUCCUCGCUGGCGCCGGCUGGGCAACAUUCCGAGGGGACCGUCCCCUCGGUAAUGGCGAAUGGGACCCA

variants of: B1; test: self-cleavage, relative activity (ratio to wild type); higher = more cleavage; co-transcriptional
Response key: rule met means self-cleavage >= 0.7; rule not met means self-cleavage < 0.7.

Previously resolved entries follow.
>  <mut>
C7U C36A

>  <class_assignment>
rule not met

$$$$
>  <mut>
U46A G50A

>  <class_assignment>
rule not met

$$$$
>  <mut>
G31C G35U

>  <class_assignment>
rule not met

$$$$
>  <mut>
C32U C64A

>  <class_assignment>
rule met

$$$$

Req: Determine whether measured self-cleavage meets or exceeds 0.7 for C13U C15A
Resp: rule not met

Req: Please answer likewise for C15U G54A
Resp: rule met

Req: Now consider C26A A87U and answer again.
Resp: rule met

Req: Further, for A43C U69C ?
Resp: rule not met

Req: // same read-out, input: C18A C21A
Resp: rule not met

Req: Follow-up entry: G35U G39A
Resp: rule not met
